- TESTED_ON: hCD38 Enzyme (Homo sapiens, UniProt P28907)
- Sequence (P28907 43-300 limits assumed): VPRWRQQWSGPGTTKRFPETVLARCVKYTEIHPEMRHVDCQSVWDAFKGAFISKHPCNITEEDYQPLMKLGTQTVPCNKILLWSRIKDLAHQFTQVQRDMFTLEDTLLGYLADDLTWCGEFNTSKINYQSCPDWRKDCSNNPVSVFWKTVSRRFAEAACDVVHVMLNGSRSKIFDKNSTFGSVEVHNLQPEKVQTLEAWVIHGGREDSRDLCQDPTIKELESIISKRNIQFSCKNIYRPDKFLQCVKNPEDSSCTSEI
- ASSAY_INFO: CD38 hydrolase enzymatic assay
- CONDITION_SUMMARY: rhCD38, ε-NAD substrate, 25° C., point reading time 20 mins; read-out: hCD38 Enzyme inhibition IC50

{"SMILES_STRUCTURE": "Cc1ccccc1NC(=O)c1ccnc(-n2ccnc2)n1", "READOUT_QUALIFIER": "=", "IC50 [µM]": 0.132}
{"SMILES_STRUCTURE": "CO[C@H]1CC[C@H](NC(=O)c2ccnc(-n3ccnc3C(F)(F)F)n2)CC1", "READOUT_QUALIFIER": ">", "IC50 [µM]": 10}
{"SMILES_STRUCTURE": "CO[C@H]1CC[C@H](NC(=O)c2ccc(C(F)(F)F)c(-n3ccnc3)n2)CC1", "READOUT_QUALIFIER": ">", "IC50 [µM]": 10}
{"SMILES_STRUCTURE": "O=C(NC1CCCCC1)c1ccnc(-n2ccnc2)n1", "READOUT_QUALIFIER": "=", "IC50 [µM]": 0.016}
{"SMILES_STRUCTURE": "CO[C@H]1CC[C@H](NC(=O)c2cc(C(F)(F)F)nc(-n3ccnc3)n2)CC1", "READOUT_QUALIFIER": "=", "IC50 [µM]": 0.028}
{"SMILES_STRUCTURE": "O=C(Nc1cccc(F)c1)c1nc(-n2ccnc2)ncc1N1CCCCC1", "READOUT_QUALIFIER": "=", "IC50 [µM]": 0.043}
{"SMILES_STRUCTURE": "CO[C@H]1CC[C@H](NC(=O)c2cc(N(C)C)nc(-n3ccnc3)n2)CC1", "READOUT_QUALIFIER": "=", "IC50 [µM]": 0.045}
{"SMILES_STRUCTURE": "Cc1ccc(F)cc1NC(=O)c1cc(N2CCCCC2)nc(-n2ccnc2)n1", "READOUT_QUALIFIER": ">", "IC50 [µM]": 10}
{"SMILES_STRUCTURE": "O=C(NC1CCNCC1)c1cncc(-n2ccnc2)n1", "READOUT_QUALIFIER": "=", "IC50 [µM]": 4.08}

###

- TESTED_ON: hCD38 Enzyme (Homo sapiens)
- Construct: purchased Sino Biological Inc 10818-H08H
- ASSAY_INFO: CD38 hydrolase enzymatic assay
- Type: biochemical
- CONDITION_SUMMARY: rhCD38, ε-NAD substrate, 25° C., point reading time 20 mins; read-out: hCD38 Enzyme inhibition IC50
pIC50: −log10 of the molar value. Counter-ions that a name gives are not always drawn.
Class (required): determined from pIC50; valid ranges are I = under 7, II = from 7 up to 8, III = 8 and over

{"COMPOUND": "O=C(Nc1cc(F)cc(N2CCOCC2)c1)c1cc(C(F)(F)F)nc(-n2ccnc2)n1 [compound 176]", "CLASS_LABEL": "II"}
{"COMPOUND": "O=C(NC1CCNCC1)c1cc(C(F)(F)F)nc(-n2ccnc2)n1 [compound 162, hydrochloride]", "CLASS_LABEL": "I"}
{"COMPOUND": "CO[C@H]1CC[C@H](NC(=O)c2cccc(-c3ccno3)n2)CC1 [compound 17]", "CLASS_LABEL": "I"}
{"COMPOUND": "O=C(Nc1cccc(N2CCOCC2)c1)c1cc(C(F)(F)F)nc(-n2ccnc2)n1 [compound 177]", "CLASS_LABEL": "II"}
{"COMPOUND": "O=C(Nc1cccc(Cl)c1)c1cc(C(F)(F)F)nc(-n2ccnc2)n1 [compound 124]", "CLASS_LABEL": "III"}
{"COMPOUND": "CO[C@H]1CC[C@H](NC(=O)c2cc(-n3ccnc3)cnc2N)CC1 [compound 59]", "CLASS_LABEL": "I"}
{"COMPOUND": "N#Cc1cc(C(=O)Nc2cccc(F)c2)nc(-n2ccnc2)n1 [compound 185]", "CLASS_LABEL": "III"}
{"COMPOUND": "C[C@H]1CC[C@H](NC(=O)c2cc(C(F)(F)F)cc(-n3ccnc3)n2)CC1 [compound 158]", "CLASS_LABEL": "II"}
{"COMPOUND": "CO[C@H]1CC[C@H](NC(=O)c2cc(-n3ccnc3)cnn2)CC1 [compound 28]", "CLASS_LABEL": "I"}
{"COMPOUND": "CO[C@H]1CC[C@H](NC(=O)c2cccc(-c3nnco3)n2)CC1 [compound 19]", "CLASS_LABEL": "I"}
{"COMPOUND": "CNc1nc(C(=O)N[C@H]2CC[C@H](OC)CC2)cc(-n2ccnc2)n1 [compound 22]", "CLASS_LABEL": "I"}
{"COMPOUND": "O=C(Nc1cccc(F)c1)c1cc(N2CCOCC2)nc(-n2ccnc2)n1 [compound 114]", "CLASS_LABEL": "III"}
{"COMPOUND": "CO[C@H]1CC[C@H](NC(=O)c2cc(-c3cncs3)ccc2NC(C)=O)CC1 [compound 6]", "CLASS_LABEL": "I"}
{"COMPOUND": "O=C(Nc1cccnc1)c1cc(C(F)(F)F)cc(-n2ccnc2)n1 [compound 191]", "CLASS_LABEL": "III"}
{"COMPOUND": "O=C(Nc1ccccn1)c1ccnc(-n2ccnc2)n1 [compound 112]", "CLASS_LABEL": "II"}
{"COMPOUND": "CO[C@H]1CC[C@H](NC(=O)c2ccnc(-n3cccn3)n2)CC1 [compound 100]", "CLASS_LABEL": "I"}
{"COMPOUND": "CO[C@H]1CC[C@H](NC(=O)c2cc(-n3ccnc3)cc(=O)[nH]2)CC1 [compound 3]", "CLASS_LABEL": "I"}
